Settings: 323.15 K; 30000 kPa; Liquid
± gives the expanded uncertainty stated by the source.
value-kind: mass density

For orientation, consider the following solved cases.
- CCCCCCCCCCCCCC[P+](CCCCCC)(CCCCCC)CCCCCC.CS(=O)(=O)[O-] [trihexyltetradecylphosphonium methanesulfonate]: 930.5 ± 1.3 kg/m3
- CCCCCCCCCCCCCC[P+](CCCCCC)(CCCCCC)CCCCCC.N#C[N-]C#N [tetradecyl(trihexyl)phosphonium dicyanamide]: 899 ± 1.7 kg/m3
- CCCCCCCCCCCCCC[P+](CCCCCC)(CCCCCC)CCCCCC.O=S(=O)([N-]S(=O)(=O)C(F)(F)F)C(F)(F)F: 1066.9 ± 1.3 kg/m3
- CCCCCCCCCCCCCC[P+](CCCCCC)(CCCCCC)CCCCCC.[Br-] [tetradecyltrihexylphosphonium bromide]: 955.1 ± 1 kg/m3

Ask: Answer with the recorded mass density of CCCCCCCCCCCCCC[P+](CCCCCC)(CCCCCC)CCCCCC.[Cl-] [trihexyl(tetradecyl)phosphonium chloride] only.
Result: 890.1 ± 1.8 kg/m3
